Values compiled from PubChem BioAssay AID1347416.

run-description: qHTS Validation assay for Inhibitors of Plasmodium falciparum Dd2 growth in vitro; also: nearly all actives have a fitted effect of over 70% in size
condition-summary: P. falciparum Dd2 in RBCs, SYBR Green growth, 72 h; series mostly up to 28.7 µM
In all, about 4,100 compounds went through this assay and about 1,600 (39%) were called active. Not shown: some 25% with an inconclusive outcome. Calls follow the shape of the dose curve; as a rule, active = well fitted inhibition curve with a large enough effect; inconclusive = small, poorly fitted or top-dose-only effect; inactive = no such curve, though single readings can be large or run the other way. The list shows a part of the results.
One label from this list, please: 1.0 (active), 0.0 (inactive)

| compound | category |
| --- | --- |
| CCC(C)(C)n1nnnc1C(c1cc2cccc(C)c2[nH]c1=O)N1CCN(C(=O)c2ccco2)CC1 (centres undefined) | 1.0 |
| Cc1ccc(-c2[nH]n3c(=O)c4c(nc3c2C)CCCC4)cc1 | 1.0 |
| COc1ccc(C(=O)N[C@@H]2CCC[C@@H]2C(=O)N2CCN(C(=O)c3ccco3)CC2)cn1 | 0.0 |

Let's switch to this compound now.
input: I would be grateful if you could indicate the recorded call for `CN1CCN(c2nc(Nc3ccc(O)cc3)nc3ccccc23)CC1` .
output: 1.0
